- assayTarget: Tyrosine-protein kinase ABL1 (Homo sapiens) (UniProt P00519)
- Sequence (P00519 whole entry): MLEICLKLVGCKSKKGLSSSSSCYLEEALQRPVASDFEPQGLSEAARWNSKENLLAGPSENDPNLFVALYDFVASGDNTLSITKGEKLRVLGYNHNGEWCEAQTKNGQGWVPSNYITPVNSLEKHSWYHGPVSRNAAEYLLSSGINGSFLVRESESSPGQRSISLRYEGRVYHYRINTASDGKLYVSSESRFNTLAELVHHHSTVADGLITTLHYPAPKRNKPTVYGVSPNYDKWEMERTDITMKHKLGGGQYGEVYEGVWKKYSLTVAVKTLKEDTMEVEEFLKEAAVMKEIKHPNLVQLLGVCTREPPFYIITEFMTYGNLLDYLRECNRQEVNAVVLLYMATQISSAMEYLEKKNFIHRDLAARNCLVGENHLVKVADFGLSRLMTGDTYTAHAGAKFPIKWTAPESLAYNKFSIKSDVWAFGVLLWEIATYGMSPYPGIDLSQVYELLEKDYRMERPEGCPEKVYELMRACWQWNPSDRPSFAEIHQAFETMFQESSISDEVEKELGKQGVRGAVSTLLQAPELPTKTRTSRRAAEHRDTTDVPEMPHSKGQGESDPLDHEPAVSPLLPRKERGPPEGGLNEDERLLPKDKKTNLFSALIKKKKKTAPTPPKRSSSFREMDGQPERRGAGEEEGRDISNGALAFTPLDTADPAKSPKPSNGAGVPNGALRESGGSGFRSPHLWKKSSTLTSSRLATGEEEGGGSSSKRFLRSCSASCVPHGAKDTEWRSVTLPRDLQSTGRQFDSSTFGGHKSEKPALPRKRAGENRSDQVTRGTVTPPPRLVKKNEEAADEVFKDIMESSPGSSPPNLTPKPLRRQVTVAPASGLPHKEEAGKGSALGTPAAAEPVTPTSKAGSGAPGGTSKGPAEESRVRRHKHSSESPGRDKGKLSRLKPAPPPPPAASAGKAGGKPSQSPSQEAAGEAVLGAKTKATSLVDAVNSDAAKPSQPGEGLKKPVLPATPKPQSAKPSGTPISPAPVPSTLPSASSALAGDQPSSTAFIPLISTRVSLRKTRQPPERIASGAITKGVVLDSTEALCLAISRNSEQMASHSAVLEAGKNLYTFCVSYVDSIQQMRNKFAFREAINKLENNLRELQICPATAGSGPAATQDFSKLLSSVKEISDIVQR
- protocolNotes: Peptide phosphorylation by c-Abl protein tyrosine kinase at 25 degree for 30 min in a cell-free system
Peptide text beside a SMILES is read from it.
# Activity per record follows

molecule: CC[C@H](C)[C@H](NC(=O)[C@H](Cc1c[nH]cn1)NC(=O)[C@@H](N)CCC(=O)O)C(=O)N[C@@H](Cc1ccc(O)cc1)C(=O)N[C@@H](Cc1c[nH]cn1)C(=O)N[C@@H](CCCN=C(N)N)C(=O)N[C@@H](Cc1c[nH]cn1)C(=O)N[C@@H](CCSC)C(=O)O (H-EHIYHRHM-OH)
resultUnits: pmol
Activity: 0.33
--
molecule: CC[C@H](C)[C@H](NC(=O)[C@H](CCC(=O)O)NC(=O)[C@@H](N)Cc1ccc(O)cc1)C(=O)N[C@@H](Cc1ccc(O)cc1)C(=O)N[C@@H](CC(=O)O)C(=O)N[C@@H](Cc1ccc(O)cc1)C(=O)N[C@@H](Cc1ccc(O)cc1)C(=O)N[C@H](C(=O)O)C(C)C (H-YEIYDYYV-OH)
resultUnits: pmol
Activity: 2.71
--
molecule: CC[C@H](C)[C@H](NC(=O)[C@H](CCCN=C(N)N)NC(=O)[C@@H](N)CC(C)C)C(=O)N[C@@H](Cc1ccc(O)cc1)C(=O)N[C@@H](CCC(=O)O)C(=O)N[C@@H](CCCN=C(N)N)C(=O)N1CCC[C@H]1C(=O)N[C@@H](CCCN=C(N)N)C(=O)O (H-LRIYERPR-OH)
resultUnits: pmol
Activity: 1.23
--
molecule: CC[C@H](C)[C@H](NC(=O)[C@H](CCC(=O)O)NC(=O)[C@H](Cc1ccc(O)cc1)NC(=O)[C@@H](NC(=O)[C@H](CC(=O)O)NC(=O)[C@@H](N)CC(=O)O)[C@@H](C)CC)C(=O)N[C@@H](Cc1ccc(O)cc1)C(=O)N[C@@H](Cc1c[nH]c2ccccc12)C(=O)O (H-DDIYEIYW-OH)
resultUnits: pmol
Activity: 0.88
